Test system: Plasmodium falciparum Sir2 (PF13_0152, Sir2A)
Assay: pfSir2 binders on small-molecule microarrays, primary screen, biochemical, small-molecule microarray, 635 nm fluorescence (AID 1098);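 further: score merges spot fluorescence intensity with its signal-to-noise ratio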
Conditions: small-molecule microarray binding, fluorescence 635 nm; higher = more signal
Assay Readout: composite z-score
Give your answer as a number; write no unit.

INSERT INTO results (chem_smiles, meas_value) VALUES
  ('C=CCOC(=O)[C@@H]1[C@H]2C(=O)O[C@H](c3ccccc3)[C@H](c3ccccc3)N2[C@H](c2ccc(OCCOC(=O)[C@@H]3C[C@@H]4C(=O)N[C@@H](CC(C)C)C(=O)N4[C@@H]3c3ccc(O)cc3)cc2)[C@@]12C(=O)Nc1ccc(I)cc12', 1.03);

# input for lookup
What does the data say about its composite z-score? Entry: COCCOC(=O)N1C(=O)[C@@]2(c3cc(C#CC4=CCCCC4)ccc31)[C@H](C(=O)N1CCCCCCC1)[C@H]1C(=O)O[C@H](c3ccccc3)[C@H](c3ccccc3)N1[C@@H]2c1ccccc1OCCO
1.33
